- assayed.system: 4'-phosphopantetheinyl transferase ffp (Bacillus subtilis)
- method.notes: qHTS Assay for Inhibitors of Bacillus subtilis Sfp phosphopantetheinyl transferase (PPTase)
- reported.conditions: Biochemical Sfp PPTase activity
The campaign covered roughly 310,000 compounds. About 11,000 (3.5%) were called active. About 4% were inconclusive and are not listed. The sample as a whole holds a higher share of actives than the screen did.
quantity.kind: largest response in the series, negative = inhibition (%)
Answer with a number only, understood to be in %.

compound: CCNC(=S)Nc1ccc(OC(F)(F)F)cc1
number: 14.8
//
compound: CCOc1ccc(N(CC(=O)NCC2CCCO2)S(=O)(=O)c2ccc(C)cc2)cc1 (configuration not stated)
number: 9.58
//
compound: CCCCCCC(O)(CCN1CCCCC1)c1ccccc1 (configuration not stated)
number: 9.61
//
compound: Cc1ccc(NC(=O)CCC(=O)c2ccc(Br)cc2)cc1
number: 11.8

Data request, read-out largest response in the series, negative = inhibition, for `CCOc1ccc(S(=O)(=O)N2CCC(C(=O)NCc3ccccn3)CC2)cc1Cl` 5.52

For `Cc1cc(F)ccc1NC(=S)NCCc1ccccc1` then? 0.31

Cool, now `COc1ccc2nc(SCc3ccccc3)nc(C)c2c1` -4.22

* * *

Reported largest response in the series, negative = inhibition values follow for various compounds
- assayed.system: 4'-phosphopantetheinyl transferase ffp (Bacillus subtilis)
- method.notes: qHTS Assay for Inhibitors of Bacillus subtilis Sfp phosphopantetheinyl transferase (PPTase);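 as to largest response in the series, negative = inhibition: 0% = enzyme reaction without inhibitor and -100% = no enzyme wells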
- reported.conditions: Biochemical Sfp PPTase activity
Out of some 310,000 compounds screened, about 11,000 (3.5%) were called active. Not shown: some 4% with an inconclusive outcome. For the sample, actives were picked, then their nearest neighbours and some compounds at random.
Unit % implied. Number only.

Here is how some compounds turned out for largest response in the series, negative = inhibition.
compound: CCN(CC)CCCNC(=O)c1c(O)c2cc(F)cc3c2n(c1=O)C(C)CC3 (centres undefined)
unit.of.measure: %
number: 2.11
--
compound: NC(=O)C1CCN(CC(O)CSc2ccc(F)cc2)CC1 (centres undefined)
unit.of.measure: %
number: 0.977
--
compound: CCOC(=O)Cc1csc(NC(=O)CSc2ccc(Br)cc2)n1
unit.of.measure: %
number: 11.6
--
compound: Cc1ccc(C)c(NC(=S)NNC(=O)c2csc(C)c2)c1
unit.of.measure: %
number: 9.77
--
compound: Oc1ccc(Br)cc1/C=N/Nc1ccccn1
unit.of.measure: %
number: 5.24
--
compound: O=S(=O)(c1ccc(Br)cc1)c1nc(-c2ccccc2)oc1N1CCOCC1
unit.of.measure: %
number: -5.06
--
compound: CCOCCOC(=O)C(C)Oc1ccc(Oc2ncc(C(F)(F)F)cc2Cl)cc1 (centres undefined)
unit.of.measure: %
number: -1.26
--
compound: Cc1cccc(NC(=O)C(C)SCc2ccccc2)c1 (centres undefined)
unit.of.measure: %
number: 3.73

Note: attention shifts to another entry.
I would be grateful if you could share the reported largest response in the series, negative = inhibition for `Cc1cc(-c2cccs2)nc(-n2cccc2)n1` . 1.03

* * *

- assayed.system: 4'-phosphopantetheinyl transferase ffp (Bacillus subtilis) (UniProt Q9F4F7)
- method.notes: qHTS Assay for Inhibitors of Bacillus subtilis Sfp phosphopantetheinyl transferase (PPTase);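 also: the enzyme is Sfp with the accession as filed and its product quenches rhodamine fluorescence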;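 as to largest response in the series, negative = inhibition: 0% = enzyme reaction without inhibitor and -100% = no enzyme wells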
- reported.conditions: Biochemical Sfp PPTase activity
- Text: Assay Submitter: Michael Burkart, University of California, San Diego Screening Center PI: Austin, C.P. Screening Center: NIH Chemical Genomics Center [NCGC] […] In search of small molecule Sfp-PPTase inhibitors, a fluorescence quenching assay was developed for detection of Bacillus subtilis Sfp-PPTase enzymatic activity in a miniaturized high-throughput format. […]
The campaign covered roughly 310,000 compounds. About 11,000 (3.5%) were called active. Inconclusive results (about 4%) are left out. The sample as a whole holds a higher share of actives than the screen did.
quantity.kind: largest response in the series, negative = inhibition (%)
Enter your answer as a number in %; do not include the unit.

Worked cases, answers included:
compound: O=C(CN(C(=O)CNC(=O)c1cccs1)c1cccc(F)c1)NC1CCCCC1
number: 6.32
//
compound: Cc1ccc(C(=O)Oc2ccc(C(=S)N3CCOCC3)cc2)cc1
number: -21.7
//
compound: CCn1cc(S(=O)(=O)c2cccc(C)c2)c(=O)c2cc(F)c(N3CCN(C)CC3)cc21
number: 4.71
//
compound: O=C(Nc1ccc(NC(=O)c2cccs2)cc1)c1ccc2ccccc2c1
number: -1.36
//
compound: O=C(CCC1CCCN(C(=O)c2ccc(F)c(F)c2)C1)N1CCN(c2ccccn2)CC1 (stereo unspecified)
number: 7.09

Requested field: largest response in the series, negative = inhibition. Item: CC(=O)c1ccc(N2CCN(CC(O)c3ccccc3)CC2)cc1 (stereo unspecified) 16.5

# iterate: COc1ccc(-c2cc(=O)oc3cc(OC(C)C(=O)NCC4CCC(C(=O)O)CC4)ccc23)cc1 (stereo unspecified) 18.5

// query: `CCN1CCN(c2sc(S(C)(=O)=O)nc2S(=O)(=O)c2ccc(Cl)cc2)CC1` 14.2

Further, for `CCCc1cc(-c2n[nH]c(=S)n2CC)c2ccccc2n1` ? -1.53

* * *

- assayed.system: 4'-phosphopantetheinyl transferase ffp (Bacillus subtilis)
- method.notes: qHTS Assay for Inhibitors of Bacillus subtilis Sfp phosphopantetheinyl transferase (PPTase);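 also: the enzyme is Sfp with the accession as filed and its product quenches rhodamine fluorescence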;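 as to largest response in the series, negative = inhibition: 0% = enzyme reaction without inhibitor and -100% = no enzyme wells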
- reported.conditions: Biochemical Sfp PPTase activity
- Description: Assay Submitter: Michael Burkart, University of California, San Diego Screening Center PI: Austin, C.P. Screening Center: NIH Chemical Genomics Center [NCGC] […] In search of small molecule Sfp-PPTase inhibitors, a fluorescence quenching assay was developed for detection of Bacillus subtilis Sfp-PPTase enzymatic activity in a miniaturized high-throughput format. […]
The campaign covered roughly 310,000 compounds. About 11,000 (3.5%) were called active. Inconclusive results (about 4%) are left out. Shown is part of a subset that was picked to be rich in actives.
Attribute: largest response in the series, negative = inhibition
Report as a plain number; the unit % is understood.

Past entries and their recorded results:
compound: CCc1nccn1CCC(=O)N1CCCC(N2CCN(c3ccccc3F)CC2)C1 (centres undefined)
unit.of.measure: %
number: 1.37
--
compound: Cc1cc(C)cc(OCC(=O)NC(C)c2ccccc2)c1 (centres undefined)
unit.of.measure: %
number: -3.71
--
compound: CCOc1ccccc1/C=N/NC(=O)CNC(=O)COc1ccccc1
unit.of.measure: %
number: 13.5

# ---- query compound ----
For `O=C(c1ccncc1)N1CCC2(CCN(Cc3cc(C(F)(F)F)cc(C(F)(F)F)c3)CC2)CC1` , what is its reported largest response in the series, negative = inhibition? 8.21

* * *

Entries annotated with measured largest response in the series, negative = inhibition
- assayed.system: 4'-phosphopantetheinyl transferase ffp (Bacillus subtilis)
- method.notes: qHTS Assay for Inhibitors of Bacillus subtilis Sfp phosphopantetheinyl transferase (PPTase);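 also: the enzyme is Sfp with the accession as filed and its product quenches rhodamine fluorescence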;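 as to largest response in the series, negative = inhibition: 0% = enzyme reaction without inhibitor and -100% = no enzyme wells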
- reported.conditions: Biochemical Sfp PPTase activity
The campaign covered roughly 310,000 compounds. About 11,000 (3.5%) were called active. Roughly 4% stayed inconclusive and do not appear here. The full list was thinned out, with actives kept by preference.
Please state the figure in %; there is no need to write the unit.

compound: Cc1ccc(CS(=O)(=O)c2ncc(Cl)c(C(=O)Nc3nnc(C)s3)n2)cc1
number: -13.2
//
compound: C=CCNC(=S)N/N=C/c1ccc(C)s1
number: 10
//
compound: Nc1scc[n+]1Cc1cccc2cccnc12
number: 17.3

Quick check: largest response in the series, negative = inhibition on 4'-phosphopantetheinyl transferase ffp (Bacillus subtilis), item `c1ccc(NCc2cccc3ccccc23)nc1` ? -7.37

Please give the result for Cc1cccc(C(=O)NCC(=O)OCC(=O)N2CC3(C)CC2CC(C)(C)C3)c1 (centres undefined) too. -0.692

* * *

Attribute: Potency
- assayed.system: 4'-phosphopantetheinyl transferase ffp (Bacillus subtilis) (UniProt Q9F4F7)
- method.notes: qHTS Assay for Inhibitors of Bacillus subtilis Sfp phosphopantetheinyl transferase (PPTase); also: potency is read from the fitted curve at half-maximal effect;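 also: the enzyme is Sfp with the accession as filed and its product quenches rhodamine fluorescence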
- reported.conditions: Biochemical Sfp PPTase activity
The campaign covered roughly 310,000 compounds. About 11,000 (3.5%) were called active. Not shown: some 4% with an inconclusive outcome. The sample holds actives, similar compounds and a random draw of the others, so the mix is not that of the screen.

compound: Cc1cccc(CNc2ccnc(-c3cccnc3)n2)c1
Potency: 79.4 µM (active)

compound: O=C(NC(=S)Nc1ccccc1C(=O)O)c1ccc(-c2ccc(Br)cc2)o1
Potency: 31.6 µM (active)

compound: COCCCNC(=O)[C@H]1N2C(=O)c3ccccc3C2SC1(C)C (some centres not stated)
Potency: 56.2 µM (active)

compound: Cc1cc(C)n(-c2nc(O)cc(=O)[nH]2)n1
Potency: 15.8 µM (active)

compound: O=C(N/N=C\c1cc(Br)c(Br)o1)C1COc2ccccc2O1 (configuration not stated)
Potency: 39.8 µM (active)

What Potency value was documented for this compound, `O=C(NNc1ccccn1)c1ccc(Cl)nc1` ? 56.2 µM (active)

Repeat for the following compound: CCC(c1nnnn1Cc1ccco1)N(Cc1cc2cc(OC)ccc2[nH]c1=O)C1CCCCC1 (configuration not stated) 3.55 µM (active)

From: PubChem BioAssay AID1490
